# Tested on: lymphocyte
# test protocol: MTT cytotoxic assay
# Assay type: cell-based, mouse
# condition label: 10^−7 M; control 0.337
molecules and their reported Cytotoxicity OD Value

[
  {
    "molecule": "CC(C)C12OC1C1OC13C1(OC1C(O)C1(O)C4=C(CCC13C)C(=O)OC4)C2O [LLDT-22, cis-(5R, 6S)-5,6-dihydroxytriptolide]",
    "Cytotoxicity OD Value": 0.345
  },
  {
    "molecule": "CC(C)C12OC1C1OC13C1(C)CCC4=C(COC4=O)C1=CC1OC13C2O (stereo not drawn) [LLDT-18, Δ^5,6-dehydrotriptolide]",
    "Cytotoxicity OD Value": 0.295
  },
  {
    "molecule": "CC(C)[C@]12O[C@H]1[C@@H]1O[C@@]13[C@@]1(C)CCC4=C(COC4=O)[C@@]14O[C@H]4[C@@H]1O[C@@]13C2=O [LLDT-16, (5R, 6S)-5,6-epoxytriptonide]",
    "Cytotoxicity OD Value": 0.337
  },
  {
    "molecule": "CC(C)C12OC1C1OC13C1(OC1C1OC14C1=C(CCC43C)C(=O)OC1)C2O [LLDT-20, (5R, 6S)-5,6-epoxytriptolide]",
    "Cytotoxicity OD Value": 0.350
  },
  {
    "molecule": "CC(C)[C@]12O[C@H]1[C@@H]1O[C@@]13[C@@]1(C)CCC4=C(COC4=O)C1=C[C@@H]1O[C@@]13C2=O [LLDT-15, Δ^5,6-dehydrotriptonide]",
    "Cytotoxicity OD Value": 0.316
  },
  {
    "molecule": "CC(C)[C@]12O[C@H]1[C@@H]1O[C@]13[C@]1(O[C@H]1C=C1C4=C(CC[C@@]13C)C(=O)OC4)[C@H]2O [LLDT-19, Δ^5,6-dehydro-14-epitriptolide]",
    "Cytotoxicity OD Value": 0.340
  },
  {
    "molecule": "CC(C)[C@]12O[C@H]1[C@@H]1O[C@@]13[C@@]1(C)CCC4=C(COC4=O)[C@]1(O)[C@@H](O)[C@@H]1O[C@@]13C2=O [LLDT-17, cis-(5R, 6S)-5,6-dihydroxytriptonide]",
    "Cytotoxicity OD Value": 0.355
  },
  {
    "molecule": "CC(C)[C@]12O[C@H]1[C@@H]1O[C@]13[C@]1(O[C@H]1[C@@H]1O[C@@]14C1=C(CC[C@]34C)C(=O)OC1)[C@H]2O [LLDT-21, (5R, 6S)-5,6-epoxy-14-epitriptolide]",
    "Cytotoxicity OD Value": 0.332
  },
  {
    "molecule": "CC(C)C12OC1C1OC13C1(OC1C(O)C1(O)C4=C(CCC13C)C(=O)OC4)C2O (stereo not drawn) [LLDT-23]",
    "Cytotoxicity OD Value": 0.349
  }
]

---

# Test system: T lymphocyte
# test protocol: ConA induced T-lymphocyte proliferation ([3H]thymidine)
# Format: cell-based, mouse
# condition label: 10^−6 M; control 125789

[
  {
    "compound": "CC(C)[C@]12O[C@H]1[C@@H]1O[C@@]13[C@@]1(C)CCC4=C(COC4=O)C1=C[C@@H]1O[C@@]13C2=O [LLDT-15, Δ^5,6-dehydrotriptonide]",
    "Lymphocyte Proliferation (cpm) T cell": 10296
  },
  {
    "compound": "CC(C)[C@]12O[C@H]1[C@@H]1O[C@]13[C@]1(O[C@H]1C=C1C4=C(CC[C@@]13C)C(=O)OC4)[C@H]2O [LLDT-19, Δ^5,6-dehydro-14-epitriptolide]",
    "Lymphocyte Proliferation (cpm) T cell": 79418
  },
  {
    "compound": "CC(C)[C@]12O[C@H]1[C@@H]1O[C@@]13[C@@]1(C)CCC4=C(COC4=O)[C@]1(O)[C@@H](O)[C@@H]1O[C@@]13C2=O [LLDT-17, cis-(5R, 6S)-5,6-dihydroxytriptonide]",
    "Lymphocyte Proliferation (cpm) T cell": 84825
  }
]
